The reported numbers originate from patent US3992540A.

Test: Acute toxicity in mice, intraperitoneal
Settings: mouse, in vivo, ip, observed for a week, graphically determined by Miller et al method, read-out: DL50
Measurement name: LD50 at 168 h (mg/kg)
Unit mg/kg implied. Number only.

[Q] Consider the compound O=C(Nc1nccs1)c1cnc2c(C(F)(F)F)cccc2c1O and give its measured LD50 at 168 h.
[A] 225
